# measured_target: Huntingtin (Homo sapiens) (UniProt P42858)
# Sequence (P42858 whole entry, looked up, stated change not applied): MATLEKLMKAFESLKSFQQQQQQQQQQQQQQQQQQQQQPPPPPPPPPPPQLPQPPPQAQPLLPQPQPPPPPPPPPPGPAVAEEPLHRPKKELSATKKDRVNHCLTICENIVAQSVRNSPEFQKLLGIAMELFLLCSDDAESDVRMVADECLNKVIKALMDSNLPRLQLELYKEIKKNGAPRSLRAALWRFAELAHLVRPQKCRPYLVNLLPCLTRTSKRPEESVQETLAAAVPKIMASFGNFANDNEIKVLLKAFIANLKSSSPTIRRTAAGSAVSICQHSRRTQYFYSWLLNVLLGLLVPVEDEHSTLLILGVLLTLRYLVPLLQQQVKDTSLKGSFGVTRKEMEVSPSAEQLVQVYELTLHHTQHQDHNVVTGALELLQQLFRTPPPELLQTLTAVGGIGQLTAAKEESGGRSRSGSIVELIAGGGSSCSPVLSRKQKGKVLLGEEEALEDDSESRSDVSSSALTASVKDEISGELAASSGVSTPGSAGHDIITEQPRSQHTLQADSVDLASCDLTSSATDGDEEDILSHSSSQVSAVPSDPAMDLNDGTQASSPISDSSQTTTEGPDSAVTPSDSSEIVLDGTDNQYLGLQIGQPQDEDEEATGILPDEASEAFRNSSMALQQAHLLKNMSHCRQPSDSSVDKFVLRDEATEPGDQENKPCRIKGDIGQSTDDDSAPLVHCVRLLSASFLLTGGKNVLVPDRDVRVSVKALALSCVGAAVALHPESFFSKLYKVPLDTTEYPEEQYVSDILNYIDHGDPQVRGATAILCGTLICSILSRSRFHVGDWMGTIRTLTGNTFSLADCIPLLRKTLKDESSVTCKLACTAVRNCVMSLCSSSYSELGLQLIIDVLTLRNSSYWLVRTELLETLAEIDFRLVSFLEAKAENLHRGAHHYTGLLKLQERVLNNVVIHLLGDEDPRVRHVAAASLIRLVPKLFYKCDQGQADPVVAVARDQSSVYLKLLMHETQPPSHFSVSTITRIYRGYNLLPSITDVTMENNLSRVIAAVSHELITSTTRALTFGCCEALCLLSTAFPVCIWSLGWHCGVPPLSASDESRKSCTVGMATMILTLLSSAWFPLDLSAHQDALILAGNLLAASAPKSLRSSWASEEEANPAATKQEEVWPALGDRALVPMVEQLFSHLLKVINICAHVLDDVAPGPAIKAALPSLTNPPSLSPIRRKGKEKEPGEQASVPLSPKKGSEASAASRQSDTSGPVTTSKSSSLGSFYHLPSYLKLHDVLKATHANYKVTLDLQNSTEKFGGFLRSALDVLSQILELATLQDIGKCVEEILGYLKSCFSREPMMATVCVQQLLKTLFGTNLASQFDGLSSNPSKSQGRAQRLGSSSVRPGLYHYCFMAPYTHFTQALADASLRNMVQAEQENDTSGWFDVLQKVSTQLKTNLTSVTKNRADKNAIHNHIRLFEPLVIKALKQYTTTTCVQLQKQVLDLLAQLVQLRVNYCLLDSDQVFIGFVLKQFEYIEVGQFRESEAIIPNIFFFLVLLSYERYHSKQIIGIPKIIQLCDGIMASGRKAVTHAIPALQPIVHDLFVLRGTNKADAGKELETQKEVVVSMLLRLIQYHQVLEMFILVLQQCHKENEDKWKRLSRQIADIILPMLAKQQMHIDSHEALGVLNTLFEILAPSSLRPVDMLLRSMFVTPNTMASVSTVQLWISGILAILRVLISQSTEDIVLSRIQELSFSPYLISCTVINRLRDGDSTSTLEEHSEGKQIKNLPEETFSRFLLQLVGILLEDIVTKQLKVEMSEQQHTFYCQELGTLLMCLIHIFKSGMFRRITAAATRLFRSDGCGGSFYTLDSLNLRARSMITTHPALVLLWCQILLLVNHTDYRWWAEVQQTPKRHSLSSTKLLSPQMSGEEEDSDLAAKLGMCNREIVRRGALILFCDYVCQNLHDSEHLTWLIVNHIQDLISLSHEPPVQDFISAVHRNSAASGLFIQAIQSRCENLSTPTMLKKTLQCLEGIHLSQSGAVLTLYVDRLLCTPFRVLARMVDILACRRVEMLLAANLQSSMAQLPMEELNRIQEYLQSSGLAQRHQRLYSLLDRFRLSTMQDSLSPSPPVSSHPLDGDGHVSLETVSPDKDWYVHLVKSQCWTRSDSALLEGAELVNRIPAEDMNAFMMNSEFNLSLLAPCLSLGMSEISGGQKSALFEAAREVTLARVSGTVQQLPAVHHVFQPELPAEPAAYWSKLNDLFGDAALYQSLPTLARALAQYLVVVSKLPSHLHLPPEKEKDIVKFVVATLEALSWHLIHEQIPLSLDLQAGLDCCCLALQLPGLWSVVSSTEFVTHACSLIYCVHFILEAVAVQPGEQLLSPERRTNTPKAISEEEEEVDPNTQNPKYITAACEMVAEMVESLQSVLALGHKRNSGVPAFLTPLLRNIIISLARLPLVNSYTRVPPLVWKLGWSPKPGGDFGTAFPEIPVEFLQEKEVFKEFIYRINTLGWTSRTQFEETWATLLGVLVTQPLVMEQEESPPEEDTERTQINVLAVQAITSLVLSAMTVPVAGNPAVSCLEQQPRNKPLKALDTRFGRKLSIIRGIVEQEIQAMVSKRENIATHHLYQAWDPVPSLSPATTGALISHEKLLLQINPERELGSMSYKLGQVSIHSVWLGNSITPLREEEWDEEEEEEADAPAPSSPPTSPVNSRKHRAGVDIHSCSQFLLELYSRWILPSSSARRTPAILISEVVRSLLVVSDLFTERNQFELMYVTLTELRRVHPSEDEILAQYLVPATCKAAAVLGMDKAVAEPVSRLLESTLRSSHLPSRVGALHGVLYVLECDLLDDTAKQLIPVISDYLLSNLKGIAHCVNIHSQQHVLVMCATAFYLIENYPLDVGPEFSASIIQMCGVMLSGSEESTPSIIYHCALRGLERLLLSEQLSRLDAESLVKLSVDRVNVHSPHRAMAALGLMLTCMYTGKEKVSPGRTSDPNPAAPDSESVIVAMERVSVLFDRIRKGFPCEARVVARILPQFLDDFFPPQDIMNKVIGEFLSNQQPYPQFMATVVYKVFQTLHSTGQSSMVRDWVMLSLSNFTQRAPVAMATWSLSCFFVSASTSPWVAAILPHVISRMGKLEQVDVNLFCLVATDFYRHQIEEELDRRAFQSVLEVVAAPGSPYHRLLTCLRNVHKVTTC
# method: mutant huntingtin-calmodulin interaction inhibitors – biochemical, AlphaScreen, primary screen (AID 1671202);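 also: 0% = both proteins with DMSO and 100% = one protein alone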
# condition_description: AlphaScreen His-mHTT/GST-CaM binding, luminescence; at 15 µM, hits give high values
The campaign covered roughly 190,000 compounds. About 6,900 (3.6%) were called active. This excerpt belongs to a sample that is enriched for actives.
endpoint_name: inhibition (%)

molecule | endpoint_name | uom | recorded_number
CC(=O)NC1CCN(c2ccccc2C(=O)N(C)C2CCCCC2)CC1 | inhibition | % | 11.4
O=C(c1ccccc1)c1cc(S(=O)(=O)C(F)(F)F)ccc1[N+](=O)[O-] | inhibition | % | 34
O=C(c1ccco1)N1CCN(c2ncnc3sc(-c4ccccc4)cc23)CC1 | inhibition | % | 54.6
CCOC1CCc2oc(-c3ccsc3)c(C#CC(C)(C)O)c21 (stereo not given) | inhibition | % | 11.3
Cc1ccc2nc3sc(C(=O)N4CCN(C(=O)c5ccco5)CC4)cc3c(=O)n2c1 | inhibition | % | 12.9

---

Measured inhibition accompanies every entry in the list below.
# measured_target: Huntingtin (Homo sapiens)
# method: mutant huntingtin-calmodulin interaction inhibitors – biochemical, AlphaScreen, primary screen (AID 1671202);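 also: 0% = both proteins with DMSO and 100% = one protein alone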
# condition_description: AlphaScreen His-mHTT/GST-CaM binding, luminescence; at 15 µM, hits give high values
About 6,900 (3.6%) of roughly 190,000 compounds were called active. For the sample, actives were picked, then their nearest neighbours and some compounds at random.

compound | uom | inhibition
O=C(Cc1ccc2c(c1)OCO2)N1CCC(Oc2nc3ccccc3s2)CC1 | % | 61.1
CC1=C(C(=O)Nc2cccnc2)C(c2ccccn2)n2nc(SCc3ccccc3)nc2N1 (configuration not stated) | % | 5
CCC(C(=O)NCC(C)(O)CCSC)c1ccccc1 (configuration not stated) | % | -4.2
Cc1oc2c(Cl)c(Cl)c(O)cc2c1[N+](=O)[O-] | % | 32
Cc1nc2c(C(=O)NC3CCCC3)cnn2c(C)c1Cc1cccc(Cl)c1 | % | 79
CCOc1ccc(CN2CCCC2c2c(C)noc2CC)cc1 (configuration not stated) | % | -51.7
CCOc1ccc(S(=O)(=O)N=C2C=C(Nc3ccc(C)cc3)C(=O)c3ccccc32)cc1 | % | 93
CCOC(=O)C(C)Oc1ccc2c(c1)OC(=Cc1ccc(OC)cc1)C2=O (configuration not stated) | % | -21.4
CCS(=O)(=O)NCC1CCC(C(=O)Nc2ccccc2C)CC1 (configuration not stated) | % | -10.6
CCNC(=O)c1csc(-c2cccc(OC)c2)n1 | % | -7.8
COC(=O)Oc1c([N+](=O)[O-])cc2oc(=O)sc2c1[N+](=O)[O-] | % | 53
O=c1[nH]c2ccc(S(=O)(=O)Nc3ccc(OC(F)(F)F)cc3)cc2o1 | % | 0
COc1ccc(C2=NC3(CCN(CC(=O)NCc4ccc(C)cc4)CC3)NC2=O)cc1 | % | 18.4
CCOc1ccc(NC(=O)C2CCC(N3C(=O)c4ccccc4C3=O)CC2)cc1 (configuration not stated) | % | 2.4
Cc1ccc(Sc2nccnc2N2CCC(C(=O)N3CCN(C)CC3)CC2)cc1 | % | 10.6
Cc1cc(C)c(Cc2c(C)nc3c(C(=O)NC4CCCC4)cnn3c2C)c(C)c1 | % | -6
O=C(NC(C(=O)N1CCCCC1)C12CC3CC(CC(C3)C1)C2)c1ccc(F)cc1 (configuration not stated) | % | 2.5
CCC(=O)NCc1csc(C2CCN(C(=O)c3cccs3)CC2)n1 | % | 5.45
COc1ccc(S(=O)(=O)N=C2C=C(Br)C(=O)c3ccccc32)cc1 | % | 31
O=C(c1ccc(F)cc1)N1CCc2nc[nH]c2C1 | % | -20.2
Cc1ccc(C)c(C(O)=C2C(=O)C(=O)N(CCCN3CCOCC3)C2c2ccncc2)c1 (configuration not stated) | % | -2.8
Oc1ccc2c(c1)OCC1c3cc4c(cc3OC21)OCO4 (configuration not stated) | % | 65.8

---

Measured inhibition accompanies every entry in the list below.
# measured_target: Huntingtin (Homo sapiens)
# method: mutant huntingtin-calmodulin interaction inhibitors – biochemical, AlphaScreen, primary screen (AID 1671202);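 also: 0% = both proteins with DMSO and 100% = one protein alone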
# condition_description: AlphaScreen His-mHTT/GST-CaM binding, luminescence; at 15 µM, hits give high values
Among all 190,000 compounds or so, about 6,900 (3.6%) were called active. The sample holds actives, similar compounds and a random draw of the others, so the mix is not that of the screen.
endpoint_name: inhibition (%)

compound | recorded_number
CCN(c1ccc(F)cc1)S(=O)(=O)c1ccc2[nH]cc(C(=O)NCCN(C)C)c(=O)c2c1 | 3
CCOc1cc(/C=C2\C(=O)NC(=O)N(c3ccc(Br)cc3)C2=O)ccc1O | 5
O=C(c1ccc(-c2ccsc2)nc1)N1CCCCCC1 | -6.2
CC(SCc1ccccc1)C(=O)Nc1ccc(Cl)cc1 (stereo unspecified) | -33.9
O=C(Nc1ccc2c(c1)OCCO2)N1CCCC1c1ccc(Cl)cc1 (stereo unspecified) | 10.2
CC(=O)Nc1c(C)ccc(S(=O)(=O)N2CCCCC2)c1C | 2.7
Cc1ccc(F)cc1NC(=O)Cn1c(=O)nc(N2CCCCC2)c2ccccc21 | 12.4
CC1CCCN(C(=O)c2ccc(-c3ccsc3)nc2)C1 (stereo unspecified) | -3.7
CC(C)C(=O)Oc1ccc2c(c1)OC(=Cc1ccco1)C2=O | 42.1
O=C(c1ccc(-c2ccsc2)nc1)N1CCOCC1 | -3.2
Cc1ccccc1C1=N/C(=C\c2ccc(Br)cc2)C(=O)O1 | -1

---

# measured_target: Huntingtin (Homo sapiens) (UniProt P42858)
# method: mutant huntingtin-calmodulin interaction inhibitors – biochemical, AlphaScreen, primary screen (AID 1671202);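 also: 0% = both proteins with DMSO and 100% = one protein alone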
# condition_description: AlphaScreen His-mHTT/GST-CaM binding, luminescence; at 15 µM, hits give high values
Hit rate of the full screen: of about 190,000 compounds, about 6,900 (3.6%) were called active. Many of the other results were omitted from the sample, so actives are more common in it than they were.
Param threshold (20%) applies to inhibition; output Yes when value >= threshold, No when value < threshold.

compound | class_name
Cc1ccc(-c2cc3c(N4CCC(C(=O)NCc5cccnc5)CC4)nccn3n2)cc1C | Yes
CC(NC(=O)C1CCN(c2nccn3nc(-c4ccccc4)cc23)CC1)c1ccc(F)cc1 (stereo unspecified) | No
CCNc1nc(NCC)n2c(SCC(=O)c3ccc(C(C)(C)C)cc3)nnc2n1 | No
O=C(NCc1ccc(F)cc1)C1CCN(c2nccn3nc(-c4ccc(F)cc4)cc23)CC1 | No
O=C(c1cn2cc(-c3ccc(F)c(Cl)c3)ccc2n1)N1CCOCC1 | No
CCN(CC)S(=O)(=O)N1CCC(C(=O)NCc2cccnc2)CC1 | No
CC(NC(=O)C1CCN(c2nccn3nc(-c4cccs4)cc23)CC1)c1ccccc1 (stereo unspecified) | Yes
O=C(Nc1cccc(Cl)c1)C1CCN(c2nccn3nc(-c4ccccc4)cc23)CC1 | No
O=C(NCCc1ccccn1)C1CCN(c2nccn3nc(-c4ccc(F)cc4)cc23)CC1 | No
O=C1c2ccccc2C(=O)c2c(NC(=O)c3c(F)cccc3F)cccc21 | No
Cc1cc2c(cc1C)NC1(C[C@H]3CCC(=O)N4CC[C@@H](C1)[C@@H]34)C(=NC(C)(C)CC(C)(C)C)N2 (stereo partly specified) | Yes
CN(C)c1ccc(-c2ccc3nc(C(=O)N4CCCC4)cn3c2)cc1 | Yes
O=S(=O)(c1cccnc1)N1CCN(c2ccc(-c3cccs3)nn2)CC1 | No
CCCN1CCN(c2ncnc3c2nc2n3CCCC2)CC1 | No
O=[N+]([O-])c1ccccc1/C=C/CN1CCN(C/C=C/c2ccccc2)CC1 | Yes
Nc1ncnc(N2CCN(c3ccccc3)CC2)c1[N+](=O)[O-] | No
O=C(NCc1ccc(Cl)cc1)C1CCN(c2nccn3nc(-c4ccccc4)cc23)CC1 | Yes
CCOc1ccccc1NC(=O)c1nn(-c2ccccc2OC)c(=O)c2ccccc12 | No
O=C(c1cnc(-c2ccccc2)nc1N1CCSCC1)N1CCCCC1 | No
O=C1c2ccccc2C(=O)c2c(NC3CCCCC3)cccc21 | Yes
O=[N+]([O-])c1ccccc1/C=C/CN1CCN(c2ccccc2)CC1 | Yes

---

Measured inhibition accompanies every entry in the list below.
# measured_target: Huntingtin (Homo sapiens)
# method: mutant huntingtin-calmodulin interaction inhibitors – biochemical, AlphaScreen, primary screen (AID 1671202);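 also: 0% = both proteins with DMSO and 100% = one protein alone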
# condition_description: AlphaScreen His-mHTT/GST-CaM binding, luminescence; at 15 µM, hits give high values
Screen size: about 190,000 compounds; about 6,900 (3.6%) were called active. This excerpt belongs to a sample that is enriched for actives.

compound | inhibition, %
Brc1ccc2c(c1)CCCN2 | 10
CCCc1ccc(OCC(O)CN2CCN(C(=O)OCC)CC2)cc1 (stereo unspecified) | 24.7
O=C(Nc1ccc(N2CCN(C(=O)C3CCCC3)CC2)nc1)c1ccc(F)cc1F | 1.5
Cc1nn(C)c(C)c1Nc1ccc(N2C(=O)CCCC2=O)cc1[N+](=O)[O-] | 1
O=C1C2C3C=CC(C3)C2C(=O)N1c1ccc(Nc2ccc3c(c2)CCC3)c([N+](=O)[O-])c1 (stereo unspecified) | 74
O=C(COc1ccc([N+](=O)[O-])cc1)c1ccc(O)cc1O | 2.4
